Data origin: paper PMC7954794

- System: BEM1-2
- MEASUREMENT_DESCRIPTION: DHFR-PCA on solid medium, bait BEM1-2 (Fig. 1B)
- Assay type: cell-based, Saccharomyces cerevisiae
- CONDITION_PARAMETERS: bait BEM1-2, label = prey; 2-8 replicates
Please provide measured medrep (log2 median colony size normalized to plate background, PCA score) for the entries that follow.

{"columns": ["MOLECULE", "EXPERIMENTAL_RESULT"],
 "data": [
  ["YER114C (protein) PMYIAINEYFKRMEDELDMKPGDKIKVITDDEEYKDGWYFGRNLRTNEEGLYPVVFTQKIT", 2.85],
  ["YLR332W (protein, UniProt P36027 26-376, looked up) Cell wall integrity sensor …: QFFVQSSSSNSSAVSTARSSVSRVSSSSSILSSSMVSSSSADSSSLTSSTSSRSLVSHTSSSTSIASISFTSFSFSSDSSTSSSSSASSDSSSSSSFSISSTSATSESSTSSTQTSTSSSSSLSSTPSSSSSPSTITSAPSTSSTPSTTAYNQGSTITSIINGKTILSNHYTTVTYTPSATADSSNKSKSSGLSKKNRNIVIGCVVGIGVPLILVILALIYMFCIQSSRTDFIDSDGKVVTAYRANKFTKWWYMLLGKKVSDEYHSDSPLGGSASSAGGLDLDEADDVMEQSSLFDVRIRDSDSVLPNANTADHNNTNSGGEPINSSVASNDIIEEKFYDEQGNELSPRNY", 4.445]
]}

Let us move to another entry and its medrep (log2 median colony size normalized to plate background, PCA score).
Please report the recorded medrep (log2 median colony size normalized to plate background, PCA score) for YKL051W (protein, UniProt P35735 1-353, looked up) Protein SFK1: MIQFKSPGNWLFIVPWIAFIPWYGMLIAMLICWASQGHPIYWFMHSEQFPVYISDIGATNLRPLFISCAGWQGLGYVITVALEFFQRSGYLPFQLKKKDPSISDSTSYAEKLHSGKYLMPPYYTKDERNLIFAAFVLGSIGELALLFSSIFSTALYHRVHIAMVSVFVVFMFLSTCCLIAEYFLMGRHYASVHPLASPHFNPQSSEKSFNQDYNTVDELPWYKWKGHVWNKFTISATLKVIWLTLAVVWAICFGAINDRSKSACFEWLLAFWFGIIFMILSADFYLGGRYRQSRYFNHVESFSGYYKYDKALGLYHSEDVLPSDDNAGVIATETASSNIYNNSSSNESIQVVV .
1.764
